tested on: Saccharomyces cerevisiae; assay: protein stability index of tFT-peptide fusion (C-terminal peptide) (PSI (0-1 scale)); higher = more stable (slower turnover); conditions: genetic background: das1 deletion; temperature: 30 C
Below, each entry is listed alongside its reported protein stability index.
reported_metric: protein stability index

1. VFLACSMTGGDA = 0.373
2. RDYIAAKLVVCG = 0.304
3. FLAWSVGILCRV = 0.238
4. GLCLFLIGVFSV = 0.246
5. YPVAWSSAIIIR = 0.362
6. WCFFFVGCCCFG = 0.462
7. KLCVGLVLSFVC = 0.341
8. CFFSLLLLIFSV = 0.311
9. GWLVGLGLVFFT = 0.513
10. FSVLRLVIVSLL = 0.35
11. VVQCRFPTPCVV = 0.372
12. MCRMYELYVTSS = 0.382
13. EFWWPFDRRGVI = 0.724
14. FFSFTVLVSYGF = 0.192
15. SVLSFGVFCLVG = 0.524
16. CLFHQFITLLVN = 0.222
17. TSLPPSPPPSPT = 0.392
18. FVIVSSCIGYAL = 0.451
19. GIFVWWFWGCCG = 0.38
20. GILLLLISRVVF = 0.229
21. FGFWGVVSCCNA = 0.472
22. IYEAFLVFCLCG = 0.326
23. VFFTSLPPLLRA = 0.372
24. FFVRSWWVELLF = 0.558
25. IMGGLRHRIEVY = 0.273
26. FCGWLGVYLVKG = 0.484
27. CTFFCICVFFLL = 0.339
28. PRLWLYCLIISL = 0.186
29. WSISFGLLVCWV = 0.199
30. LLILSVRPFVFV = 0.397
31. GTMGWYSISRRL = 0.681
32. SPPSFPPLLLLS = 0.608
33. KKKEIIKIIKIN = 0.697
34. LLLALLFWPCPI = 0.402
35. ILDRRPRTFALV = 0.633
36. NQIIRLIVGLLC = 0.486
37. FFRPWRLVGCLV = 0.265
38. GFYQSGGLVVVV = 0.501
39. CPPPPPSLLLLC = 0.591
40. VCSRWFFVFVVR = 0.331
41. VVSLGGWCLYIY = 0.416
42. SPVPITVAVGCR = 0.352
43. CLCFFLICFILF = 0.235
44. GFVISSCRLFIL = 0.59
45. FRVSAFFLPFLS = 0.655
46. VAFILVVCKGIG = 0.175
47. TLCCLVCSQGVV = 0.471
48. RWRLWGGWWVVG = 0.579

###

test system: Saccharomyces cerevisiae; assay: protein stability index of tFT-peptide fusion in deletion strain of DOA10 (PSI (0-1 scale)); higher = more stable (slower turnover)
reported_metric: protein stability index

1) RSLRVLLPLYFL = 0.516
2) GLYSCSVGCWFR = 0.676
3) GLYMISVGCWFR = 0.341
4) RVTRLDAIYFPI = 0.731
5) RVTRLGAIYFRI = 0.634
6) RVTRLDAIYVRI = 0.635
7) MITLPMCPLLLR = 0.626
8) GLYMCSVGAWFR = 0.667
9) CLTSLPILLFFR = 0.636
10) RVTQLDAIYFRI = 0.685
11) CLVSLPILPFFR = 0.679
12) CEVSLPILLFFR = 0.635
13) AITLPMCPLFLR = 0.67
14) GLYMCSVGCFFR = 0.632
15) CLPSLPILLFFR = 0.632
16) RSLRVLLLLYFR = 0.432
17) RSLAVLLPLYFR = 0.68
18) CLVSLPILLKFR = 0.652
19) AITLGMCPLLLR = 0.661
20) AITKPMCPLLLR = 0.651
21) CLVSLPKLLFFR = 0.662
22) QSLRVLLPLYFR = 0.659
23) CPVSLPILLFFR = 0.602
24) YLVSLPILLFFR = 0.538
25) RVIRLDAIYFRI = 0.653
26) RSLRVLLPLYIR = 0.596
27) GLYMCSCGCWFR = 0.674
28) RSLRVLLPLYWR = 0.658
29) AITLPMCPYLLR = 0.675
30) GLYMCSVGCSFR = 0.651
31) MSLRVLLPLYFR = 0.622
